Test: self-splicing fitness, log relative to wild type (ln ratio); higher = more splicing; Tetrahymena group I intron in knt gene, E. coli kanamycin selection, DiMSum; sequences stand for … in CUCUCU…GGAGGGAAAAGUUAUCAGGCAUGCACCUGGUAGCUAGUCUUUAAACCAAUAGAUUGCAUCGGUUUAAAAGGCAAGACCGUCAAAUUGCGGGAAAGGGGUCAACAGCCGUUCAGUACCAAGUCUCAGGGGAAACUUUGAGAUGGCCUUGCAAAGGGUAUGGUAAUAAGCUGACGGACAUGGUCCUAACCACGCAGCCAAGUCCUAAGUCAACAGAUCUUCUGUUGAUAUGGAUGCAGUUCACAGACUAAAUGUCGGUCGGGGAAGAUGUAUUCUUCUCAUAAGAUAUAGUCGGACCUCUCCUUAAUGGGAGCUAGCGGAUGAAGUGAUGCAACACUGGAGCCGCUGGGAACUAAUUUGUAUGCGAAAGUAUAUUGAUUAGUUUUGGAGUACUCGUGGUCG;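 note: selection with 25 µg/mL kanamycin versus none on LB agar overnight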
Conditions: 30 °C
reported.property: self-splicing fitness (ln)

These recorded examples may help you get a feel for the data.
GAGUAGCAAUAUUACGCCUG = -1.23
GACGAGCAAUAUUACGGAAA = -2.69

Query :: Entry ACGAAGCAAUAUUACGGAUG : reported self-splicing fitness (ln) = ?
Result :: -2.82

Query :: Report self-splicing fitness (ln) for CGAUAGCAAUAUUACGGGUA please.
Result :: -3.87

Query :: // query self-splicing fitness (ln) value for entry AUACAGCAAUAUUACGAUGU
Result :: -0.929

Query :: Any idea what self-splicing fitness (ln) was measured for UAGGAGCAAUAUUACGACAU ?
Result :: -3.83

Query :: Which self-splicing fitness (ln) is listed for UCAAAGCAAUAUUACGGAUU ?
Result :: -3.73

Query :: Dear colleague, I am looking for the recorded self-splicing fitness (ln) of the following sequence: ACCUAGCAAUAUUACGCUUA
Result :: -1.73

====

Assay: self-splicing fitness, log relative to wild type (ln ratio); higher = more splicing; Tetrahymena group I intron in knt gene, E. coli kanamycin selection, DiMSum; sequences stand for … in CUCUCU…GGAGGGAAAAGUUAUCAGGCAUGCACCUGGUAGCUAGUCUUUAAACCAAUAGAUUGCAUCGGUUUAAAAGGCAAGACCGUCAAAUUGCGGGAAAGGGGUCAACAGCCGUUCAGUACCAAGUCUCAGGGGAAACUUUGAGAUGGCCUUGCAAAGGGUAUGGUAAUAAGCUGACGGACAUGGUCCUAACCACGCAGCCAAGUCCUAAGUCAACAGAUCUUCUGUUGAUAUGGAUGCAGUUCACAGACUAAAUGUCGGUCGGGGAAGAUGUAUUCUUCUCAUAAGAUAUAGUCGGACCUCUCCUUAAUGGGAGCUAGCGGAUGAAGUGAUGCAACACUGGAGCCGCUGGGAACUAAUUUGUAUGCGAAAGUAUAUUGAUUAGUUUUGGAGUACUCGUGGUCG
Details: 30 °C
reported.property: self-splicing fitness (ln)
Give the figure by itself; no unit, no explanation.

Use the examples below as a reference point.
UUAAAGCAAUAUUACGGUCA = 0.199
GCAUAGCAAUAUUACGCGUC = -3.3
CACUAGCAAUAUUACGUGAA = -3.83
GCCUAGCAAUAUUACGGAGA = -1.16
GAGCAGCAAUAUUACGAUCC = -2.45
ACCUAGCAAUAUUACGUCGA = -2.29

Query :: Looking for the measured self-splicing fitness (ln) of GCAAAGCAAUAUUACGACGU , can you help?
Result :: 0.0721

Query :: I have this sequence here, UUACAGCAAUAUUACGCGAA , and I need its recorded self-splicing fitness (ln).
Result :: -1.02
